test: Permeability of the compound at pH 6.2 by PAMPA assay; assay type: ADME; conditions: read-out: permeability
Assay metric: Papp
Note to self: number, then unit, no commentary.

query_smiles=CC(=O)Nc1nc(C)c(-c2cnc(-c3cccnc3)o2)s1 readout_value="77.3 ×10⁻⁶ cm/s"

Field Papp (entry CC(=O)Nc1nc(C)c(-c2cnc(C(C)(C)C)o2)s1 ) reads 88.4 ×10⁻⁶ cm/s

Looking up CC(=O)Nc1nc(C)c(-c2cnc(Nc3cccc(C(=O)O)c3)o2)s1 , I see its Papp listed as 1.4 ×10⁻⁶ cm/s

---

Each item that follows carries a reported Ratio IC50.
organism: Homo sapiens; assay: Selectivity ratio of IC50 for human PI3Kalpha to IC50 for human PI3Kgamma
Kindly provide the number alone.

Look over these answered cases.
query_smiles=CC(=O)Nc1nc(C)c(-c2cnc(C(C)(C)C)o2)s1 readout_value=5
query_smiles=CC(=O)Nc1nc(C)c(-c2cnc(CC(F)(F)F)o2)s1 readout_value=4
query_smiles=CC(=O)Nc1nc(C)c(-c2cnc(Sc3cccnc3)o2)s1 readout_value=7
query_smiles=CC(=O)Nc1nc(C)c(-c2cnc(-c3cccnc3)o2)s1 readout_value=15
query_smiles=CC(=O)Nc1nc(C)c(-c2cnc(Nc3cccnc3)o2)s1 readout_value=9
query_smiles=CC(=O)Nc1nc(C)c(-c2cnc(S(C)(=O)=O)o2)s1 readout_value=16

Field: next molecule
What the record says about CC(=O)Nc1nc(C)c(-c2cnc(Nc3cccc(C(=O)O)c3)o2)s1 : Ratio IC50 is 27
